Could you please report measured melting point for the items listed next?
All answers are understood in °C, so give the number only.

Lab note: Cn1ncc(C(=O)N2CCCC2)c1C(=O)Nc1ccc2nc(-c3cccnc3)nn2c1 [Example 12] gave melting point of 251

GET /value?item= Cn1ncc(C(=O)N2CCC2)c1C(=O)Nc1ccc2nc(-c3cccnc3)nn2c1 [Example 10] &field=melting point returns 272

Given item Cn1ncc(C(=O)N2CCCC2)c1C(=O)Nc1ccc2nc(N3CCOCC3)nn2c1 [Example 13] , the value recorded as its melting point is 185

melting point recorded for this compound, Cn1ncc(C(=O)N2CCOCC2)c1C(=O)Nc1ccc2nc(-c3cccnc3)nn2c1 [Example 9] , is 229

Entry Cn1ncc(C(=O)N2CCCC2)c1C(=O)Nc1ccc2nc(-c3ccccc3)nn2c1 [Example 2] ; melting point = 210

GET /value?item= CN(C(=O)c1cnn(C)c1C(=O)Nc1ccc2nc(N3CCOCC3)nn2c1)C1CC1 [Example 18] &field=melting point returns 172

The reported melting point of the compound Cn1ncc(C(=O)N2CC(F)C2)c1C(=O)Nc1ccc2nc(-c3ccccc3)nn2c1 [Example 6] was 243

Cn1ncc(C(=O)O)c1C(=O)Nc1ccc2nc(-c3ccccc3)nn2c1 [Example 1] has a reported melting point of 259

Lookup result for CN(C(=O)c1cnn(C)c1C(=O)Nc1ccc2nc(-c3cccnc3)nn2c1)C1CC1 [Example 11] ; measured melting point: 237

Form: compound = CN(C(=O)c1cnn(C)c1C(=O)Nc1ccc2nc(-c3ccccc3)nn2c1)C1CC1 [Example 8] ; melting point = 106

###

target: human PDE10A (Homo sapiens (Human))
Sequence (Q9Y233 other isoform, or with tags, fused parts or gaps): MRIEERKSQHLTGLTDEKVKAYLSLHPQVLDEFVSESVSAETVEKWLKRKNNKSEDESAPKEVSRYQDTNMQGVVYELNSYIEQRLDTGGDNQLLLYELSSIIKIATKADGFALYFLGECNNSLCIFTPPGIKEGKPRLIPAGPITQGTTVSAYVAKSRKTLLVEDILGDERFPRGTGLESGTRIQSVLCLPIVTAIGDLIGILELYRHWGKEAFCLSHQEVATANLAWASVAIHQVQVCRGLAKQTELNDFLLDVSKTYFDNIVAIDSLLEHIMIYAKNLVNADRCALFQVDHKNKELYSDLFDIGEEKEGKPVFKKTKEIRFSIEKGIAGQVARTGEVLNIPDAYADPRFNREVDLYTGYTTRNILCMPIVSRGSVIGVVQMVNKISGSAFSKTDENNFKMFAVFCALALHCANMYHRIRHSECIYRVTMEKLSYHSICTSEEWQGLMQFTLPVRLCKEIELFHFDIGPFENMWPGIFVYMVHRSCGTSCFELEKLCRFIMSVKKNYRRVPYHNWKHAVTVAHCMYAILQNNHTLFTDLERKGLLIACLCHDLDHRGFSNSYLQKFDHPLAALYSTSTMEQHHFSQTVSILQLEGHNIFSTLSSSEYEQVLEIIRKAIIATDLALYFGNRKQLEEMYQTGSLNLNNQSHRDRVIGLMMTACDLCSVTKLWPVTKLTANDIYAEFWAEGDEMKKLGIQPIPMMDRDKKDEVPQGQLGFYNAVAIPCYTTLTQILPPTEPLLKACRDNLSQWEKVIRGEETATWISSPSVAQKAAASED
pIC50: −log10 of the molar value.
Threshold check on pIC50: at or above 8 gives 1 (yes), strictly below gives 0 (no).

Q: Is pIC50 at least 8? Consider `Cn1ncc(C(=O)N2CCC2)c1C(=O)Nc1ccc2nc(-c3ccccc3)nn2c1`
Result: 1 (yes)

Q: Is pIC50 for `CCN(CC)c1nc2ccc(NC(=O)c3c(C(=O)N4CCOCC4)cnn3C)cn2n1` at or above 8?
Result: 0 (no)

Q: API: above_or_equal(metric=pIC50, cutoff=8) for item `CN(C(=O)c1cnn(C)c1C(=O)Nc1ccc2nc(N3CCCC3)nn2c1)C1CC1`
Result: 1 (yes)

Q: Test whether the molecule `Cn1ncc(C(=O)N2CCOCC2)c1C(=O)Nc1ccc2nc(-c3ccccc3)nn2c1` records pIC50 of 8 or higher.
Result: 1 (yes)

Q: In plain terms: is recorded pIC50 at least 8 for `CN(C)c1nc2ccc(NC(=O)c3c(C(=O)N(C)C4CC4)cnn3C)cn2n1` ?
Result: 1 (yes)

Q: Hello, I need to know if `CN(C)c1nc2ccc(NC(=O)c3c(C(=O)N4CCOCC4)cnn3C)cn2n1` has measured pIC50 not below 8. Thanks!
Result: 0 (no)

Q: Is pIC50 for `CCN(CC)c1nc2ccc(NC(=O)c3c(C(=O)N4CCC4)cnn3C)cn2n1` at or above 8?
Result: 1 (yes)

Q: Form field: pIC50 at least 8? Entry: `Cn1ncc(C(=O)N2CCCC2)c1C(=O)Nc1ccc2nc(-c3cccnc3)nn2c1`
Result: 0 (no)

Q: Is pIC50 for `CN(C(=O)c1cnn(C)c1C(=O)Nc1ccc2nc(-c3ccccc3)nn2c1)C1CC1` at or above 8?
Result: 1 (yes)

Q: Reported pIC50 at or above 8? `Cn1ncc(C(=O)N2CC(F)C2)c1C(=O)Nc1ccc2nc(-c3ccccc3)nn2c1`
Result: 1 (yes)

Q: Exam item: decide whether the reported pIC50 for `Cn1ncc(C(=O)N2CCC2)c1C(=O)Nc1ccc2nc(N3CCCC3)nn2c1` is at least 8.
Result: 1 (yes)

###

Reported log10(IC50) values, human PDE10A (Homo sapiens (Human), UniProt Q9Y233).
Plainly stated, the numbers are log10 of IC50 given in nM.

Entry `CN(C)c1nc2ccc(NC(=O)c3c(C(=O)N4CCCC4)cnn3C)cn2n1` under human PDE10A (Homo sapiens (Human), UniProt Q9Y233) had log10(IC50) of 1.46

Entry `CCN(C)C(=O)c1cnn(C)c1C(=O)Nc1ccc2nc(N(C)C)nn2c1` : log10(IC50) on human PDE10A (Homo sapiens (Human), UniProt Q9Y233) = 1.53

`Cn1ncc(C(=O)O)c1C(=O)Nc1ccc2nc(-c3ccccc3)nn2c1` tested on human PDE10A (Homo sapiens (Human), UniProt Q9Y233) gave log10(IC50): 1.67

Form field, log10(IC50) with human PDE10A (Homo sapiens (Human), UniProt Q9Y233), item `Cn1ncc(C(=O)N2CCOCC2)c1C(=O)Nc1ccc2nc(-c3cccnc3)nn2c1` : 1.12

Entry `CCN(C)C(=O)c1cnn(C)c1C(=O)Nc1ccc2nc(N3CCCC3)nn2c1` , tested on human PDE10A (Homo sapiens (Human), UniProt Q9Y233), has a reported log10(IC50) of 0.28

The observed log10(IC50) for `CCN(C)C(=O)c1cnn(C)c1C(=O)Nc1ccc2nc(N3CCOCC3)nn2c1` when tested with human PDE10A (Homo sapiens (Human), UniProt Q9Y233) stands at 1.49

Record for COC1CCN(c2nc3ccc(NC(=O)c4c(C(=O)N(C)C5CC5)cnn4C)cn3n2)C1 (stereo not shown) under target or system human PDE10A (Homo sapiens (Human), UniProt Q9Y233): log10(IC50) reported as 0.54

###

Consider the following compounds; for each one, report its IC50.
Give just the numeric value; nM need not be written.

Known value: human PDE10A (Homo sapiens (Human), UniProt Q9Y233) IC50 of the compound COC1CCN(c2nc3ccc(NC(=O)c4c(C(=O)N5CCCC5)cnn4C)cn3n2)C1 (stereo not drawn) [Example 42] equals 7.5

Reported human PDE10A (Homo sapiens (Human), UniProt Q9Y233) IC50 for item CCN(C)C(=O)c1cnn(C)c1C(=O)Nc1ccc2nc(N(CC)CC)nn2c1 [Example 29] was 9.9

Recorded IC50 for COc1ncc(C2CC2)nc1C(=O)Nc1ccc2nc(-c3ccccc3)nn2c1 [Example 25] on human PDE10A (Homo sapiens (Human), UniProt Q9Y233) was 17

Item: CN(C(=O)c1cnn(C)c1C(=O)Nc1ccc2nc(N3CCOCC3)nn2c1)C1CC1 [Example 18] | System: human PDE10A (Homo sapiens (Human), UniProt Q9Y233) | IC50: 7.2

CN(C)c1nc2ccc(NC(=O)c3c(C(=O)N4CCC4)cnn3C)cn2n1 [Example 20] on human PDE10A (Homo sapiens (Human), UniProt Q9Y233) gives IC50 = 8.2

Sample CN(C(=O)c1cnn(C)c1C(=O)Nc1ccc2nc(-c3cccnc3)nn2c1)C1CC1 [Example 11] , system: human PDE10A (Homo sapiens (Human), UniProt Q9Y233). Its IC50 is 6.7
